# method-description: Cytotoxicity against human WI38 cells assessed as cell viability at 20 uM measured after 24 hrs by MTT assay relative to control
# Assay type: cell-based, WI-38
# particulars: read-out: Activity
Measured viability at 24 h, 20 µM by item

{"smiles-record": "CCN(CC)C(=O)c1cc(-c2ccc(NC(=O)c3cc(NC(=O)CCCOc4cc5c(cc4OC)C(=O)N4CCC[C@H]4C=N5)cn3C)cc2)cn1C", "viability at 24 h, 20 µM": "> 85%"}
{"smiles-record": "COc1cc2c(cc1OCCCC(=O)Nc1cc(C(=O)Nc3ccc4oc(C(=O)N5CCSCC5)cc4c3)n(C)c1)N=C[C@@H]1CCCN1C2=O", "viability at 24 h, 20 µM": "> 85%"}
{"smiles-record": "COc1cc2c(cc1OCCCC(=O)Nc1cc(C(=O)Nc3ccc4oc(C(=O)N(C)C)cc4c3)n(C)c1)N=C[C@@H]1CCCN1C2=O", "viability at 24 h, 20 µM": "> 85%"}
{"smiles-record": "COc1cc2c(cc1OCCCC(=O)Nc1cc(C(=O)Nc3ccc4sc(C(=O)N5CCCCC5)cc4c3)n(C)c1)N=C[C@@H]1CCCN1C2=O", "viability at 24 h, 20 µM": "> 85%"}
{"smiles-record": "COC(=O)c1cc(NC(=O)c2cc3cc(NC(=O)c4cc(NC(=O)CCCOc5cc6c(cc5OC)C(=O)N5CCC[C@H]5C=N6)cn4C)ccc3s2)cn1C", "viability at 24 h, 20 µM": "32%"}
{"smiles-record": "COc1cc2c(cc1OCCCC(=O)Nc1cc(C(=O)Nc3ccc4sc(C(=O)N5CCOCC5)cc4c3)n(C)c1)N=C[C@@H]1CCCN1C2=O", "viability at 24 h, 20 µM": "> 85%"}
{"smiles-record": "COc1cc2c(cc1OCCCC(=O)Nc1cc(C(=O)Nc3ccc4oc(C(=O)N5CCCCC5)cc4c3)n(C)c1)N=C[C@@H]1CCCN1C2=O", "viability at 24 h, 20 µM": "> 85%"}

Let's switch to this molecule now.
// query viability at 24 h, 20 µM value for entry COC(=O)c1cc(NC(=O)c2cc(NC(=O)CCCOc3cc4c(cc3OC)C(=O)N3CCC[C@H]3C=N4)cn2C)cn1C 35%

* * *

# method-description: Cytotoxicity against human WI38 cells assessed as cell viability at 20 uM measured after 24 hrs by MTT assay relative to control
# Type: cell-based, WI-38
# particulars: read-out: Activity
Measured viability at 24 h, 20 µM by item

{"smiles-record": "COc1cc2c(cc1OCCCC(=O)Nc1cc(C(=O)Nc3ccc(-c4cc(C(=O)N5CCOCC5)n(C)c4)cc3)n(C)c1)N=C[C@@H]1CCCN1C2=O", "viability at 24 h, 20 µM": "> 85%"}
{"smiles-record": "COc1cc2c(cc1OCCCC(=O)Nc1cc(C(=O)Nc3ccc(-c4cc(C(=O)N5CCSCC5)n(C)c4)cc3)n(C)c1)N=C[C@@H]1CCCN1C2=O", "viability at 24 h, 20 µM": "> 85%"}

Let's switch to this compound now.
// query viability at 24 h, 20 µM value for entry CCN(CC)C(=O)c1cc2cc(NC(=O)c3cc(NC(=O)CCCOc4cc5c(cc4OC)C(=O)N4CCC[C@H]4C=N5)cn3C)ccc2s1 > 85%

The values you see were collected from ChEMBL document CHEMBL4610120.
